Below, each entry is listed alongside its reported phosphorylation enrichment.
Target: Hck (UniProt P08631)
Sequence (P08631 whole entry, looked up): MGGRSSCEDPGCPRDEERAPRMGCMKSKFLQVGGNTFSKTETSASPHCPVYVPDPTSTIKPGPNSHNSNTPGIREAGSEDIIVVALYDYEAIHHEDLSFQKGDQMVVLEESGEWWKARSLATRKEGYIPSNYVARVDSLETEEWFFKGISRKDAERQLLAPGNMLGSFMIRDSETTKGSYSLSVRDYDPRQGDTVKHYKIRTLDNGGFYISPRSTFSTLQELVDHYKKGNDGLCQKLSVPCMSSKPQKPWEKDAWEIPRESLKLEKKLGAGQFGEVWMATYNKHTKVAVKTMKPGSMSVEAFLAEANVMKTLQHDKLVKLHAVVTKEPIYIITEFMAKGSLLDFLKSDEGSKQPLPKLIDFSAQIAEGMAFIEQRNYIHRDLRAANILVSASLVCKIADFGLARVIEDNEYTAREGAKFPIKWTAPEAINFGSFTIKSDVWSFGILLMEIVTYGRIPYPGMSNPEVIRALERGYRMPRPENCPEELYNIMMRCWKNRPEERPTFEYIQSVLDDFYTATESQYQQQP
Assay: phosphorylation enrichment, bacterial display (enrichment ratio); higher = better substrate or ligand; peptides without Tyr show the background;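 note: 11-residue human phosphosite peptides and single-mutation variants displayed on the E. coli surface, counted by deep sequencing, each peptide's frequency after selection divided by its frequency in the unselected input library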;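 note: frequency after pTyr selection over input frequency; kinase dosed for 20-30% of maximal phosphorylation in three min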

>  <sequence_content>
CENNRYGMGAS [PDHA1_Y227_T231A]

>  <phosphorylation enrichment>
0.392

$$$$
>  <sequence_content>
TVLGEYALPKG [CYP24A1_Y407]

>  <phosphorylation enrichment>
0.565

$$$$
>  <sequence_content>
SLALFYRKVYH [RBL1_Y792]

>  <phosphorylation enrichment>
0.518

$$$$
>  <sequence_content>
IPGGIYNADLN [CST4_Y35_D36N]

>  <phosphorylation enrichment>
1.27

$$$$
>  <sequence_content>
RFQKLYLDRNL [IGFALS_Y248_L244F]

>  <phosphorylation enrichment>
0.569

$$$$
>  <sequence_content>
NKVKFYIPYMN [NCR1_Y84_D87Y]

>  <phosphorylation enrichment>
0.431

$$$$
>  <sequence_content>
SIRYNYLLDVL [FGFR4_Y237]

>  <phosphorylation enrichment>
0.603

$$$$
>  <sequence_content>
VDASFYGGRGV [ANTXR2_Y381_YF]

>  <phosphorylation enrichment>
0.91

$$$$
>  <sequence_content>
MHLRQYKLLGG [GNAS_Y391_E392K]

>  <phosphorylation enrichment>
0.522

$$$$
>  <sequence_content>
TKVTFYKQPMF [GBA_Y451_D448V]

>  <phosphorylation enrichment>
0.458

$$$$
>  <sequence_content>
KRIETYFSKNY [PLP1_Y50_L46R]

>  <phosphorylation enrichment>
0.484

$$$$
>  <sequence_content>
GRVFVYHLSEQ [ITGAE_Y551_R552H_YF]

>  <phosphorylation enrichment>
0.579

$$$$
>  <sequence_content>
TALFIYIRPKA [OR10C1_Y258]

>  <phosphorylation enrichment>
0.523

$$$$
>  <sequence_content>
ECKLFYSRKEG [PTPN11_Y263_L262F]

>  <phosphorylation enrichment>
0.626

$$$$
>  <sequence_content>
FAADFYKLLGN [ROR2_Y646_YF]

>  <phosphorylation enrichment>
0.484

$$$$
>  <sequence_content>
EERNTYVNTTL [TEK_Y1102_K1100N]

>  <phosphorylation enrichment>
0.53

$$$$
>  <sequence_content>
INNIDYFKKTT [FGFR2_Y656_YF]

>  <phosphorylation enrichment>
0.567

$$$$
>  <sequence_content>
SQSKGYRPKLY [SIPA1L3_Y1376_G1371S]

>  <phosphorylation enrichment>
0.361

$$$$
>  <sequence_content>
MEKEKYVSFIS [JMJD1C_Y596_YF]

>  <phosphorylation enrichment>
0.497

$$$$
>  <sequence_content>
PLDGEYFSLQI [TP53_Y327_T329S]

>  <phosphorylation enrichment>
1.76

$$$$
>  <sequence_content>
SDPIIYTLENI [ADGRE1_Y534]

>  <phosphorylation enrichment>
1.49

$$$$
>  <sequence_content>
ENGPFYASFPP [GDAP2_Y488_T489A_YF]

>  <phosphorylation enrichment>
8.77

$$$$
>  <sequence_content>
IVRSLYEDPED [VHL_Y185_L188P]

>  <phosphorylation enrichment>
0.544

$$$$
>  <sequence_content>
GKANRYFSPNF [PTEN_Y336_D331G]

>  <phosphorylation enrichment>
0.398

$$$$
>  <sequence_content>
FATAGYGSLEA [EPHA10_Y959_A956T]

>  <phosphorylation enrichment>
0.437

$$$$
>  <sequence_content>
VKPRRYRPGTV [H3-5_Y41_H39R]

>  <phosphorylation enrichment>
0.5

$$$$
>  <sequence_content>
HAVYVCDICHV [TWNK_Y508_Y508C]

>  <phosphorylation enrichment>
0.826

$$$$
>  <sequence_content>
PEFINYHQHNS [BTK_Y361_L358F]

>  <phosphorylation enrichment>
0.485

$$$$
>  <sequence_content>
DPLASYLDKVR [KRT10_Y160_R156P]

>  <phosphorylation enrichment>
0.477

$$$$
